System: Rat hepatocyte
Test Name: Metabolic stability assay (rat hepatocyte Clint)
Assay type: in vitro ADME
Run Conditions: 1 μM compound, cryopreserved hepatocytes 1 million cells per mL
Measurement Type: Rat hepatocyte CLint (μl/min/10^−6 cells)
Report as a plain number; the unit μl/min/10^−6 cells is understood.

The following compounds have reported results that may help.
# Compound, Study System, Observed
records = [
    ("Cc1cc2ncnn2cc1Nc1ncc2c(C)nn(CC3CC3)c2n1", "Rat hepatocyte", 15.3),
    ("Cc1cc2ncnn2cc1Nc1ncc2c(C)nn(CC3CCCO3)c2n1 (single isomer, unassigned) [Example 50]", "Rat hepatocyte", 2.1),
    ("Cc1cc2ncnn2cc1Nc1ncc2c(C)nn([C@@H]3C[C@H]4CC[C@@H](C3)O4)c2n1", "Rat hepatocyte", 4.5),
    ("Cc1cc2ncnn2cc1Nc1ncc2c(C)nn(C3CCN(C)CC3)c2n1", "Rat hepatocyte", 6.8),
    ("Cc1cc2ncnn2cc1Nc1ncc2c(C)nn(CCOC(F)(F)F)c2n1", "Rat hepatocyte", 38.6),
    ("Cc1cc2nccn2cc1Nc1ncc2c(C)nn(C(C)C)c2n1", "Rat hepatocyte", 22.7),
    ("Cc1cc(-c2nn(C)c3cnc(Nc4cn5ncnc5cc4C)nc23)ccn1", "Rat hepatocyte", 32.0),
    ("Cc1cc2ncnn2cc1Nc1ncc2c(C)nn(C3COC3)c2n1", "Rat hepatocyte", 1.9),
    ("COCCC(C)n1nc(C)c2cnc(Nc3cn4ncnc4cc3C)nc21 (single isomer, unassigned) [Example 67]", "Rat hepatocyte", 8.3),
    ("Cc1cc2ncnn2cc1Nc1ncc2c(C)nn(C3CCCOCC3)c2n1 (single isomer, unassigned) [Example 34]", "Rat hepatocyte", 12.7),
]

Input line: Which Rat hepatocyte CLint (μl/min/10^−6 cells) value belongs to `Cc1cc2ncnn2cc1Nc1ncc2c(C)nn(CCCC(F)(F)F)c2n1` ?
Output line: 32.9

Input line: Which Rat hepatocyte CLint (μl/min/10^−6 cells) value belongs to Cc1cc2ncnn2cc1Nc1ncc2c(C)nn(C3CCOCC3C)c2n1 (single isomer, unassigned) [Example 115] ?
Output line: 7.7

Input line: Which Rat hepatocyte CLint (μl/min/10^−6 cells) value belongs to `Cc1cc2ncnn2cc1Nc1ncc2c(C)nn([C@H]3CC[C@H](O)CC3)c2n1` ?
Output line: 12.4

Input line: Which Rat hepatocyte CLint (μl/min/10^−6 cells) value belongs to Cc1cc2ncnn2cc1Nc1ncc2c(C)nn(CC3CCOC3)c2n1 (single isomer, unassigned) [Example 52] ?
Output line: 4.9

Input line: Which Rat hepatocyte CLint (μl/min/10^−6 cells) value belongs to Cc1cc2ncnn2cc1Nc1ncc2c(C)nn(C3CC(C)OC(C)C3)c2n1 (single isomer, unassigned) [Example 86-1] ?
Output line: 42.7

Input line: Which Rat hepatocyte CLint (μl/min/10^−6 cells) value belongs to `Cc1cc2ncnn2cc1Nc1ncc2c(C)nn(CC3CCC3)c2n1` ?
Output line: 60.9

Input line: Which Rat hepatocyte CLint (μl/min/10^−6 cells) value belongs to Cc1cc2ncnn2cc1Nc1ncc2c(C)nn(C3CCC(OC(F)F)CC3)c2n1 (stereo not drawn) ?
Output line: 21.2

----------
# efflux ratio at 120 min, 5 μM values compiled below
System: MDR1, BCRP
Test Name: MDCKII-MDR1-BCRP efflux assay
Type: in vitro ADME
Run Conditions: dog, pH 7.4, 5 μM compound, HBSS pH 7.4, read-out: MDCK-Mdr1-BCRP efflux ratio
# respond with the number and nothing more

The following molecules have reported results that may help.
# Molecule, efflux ratio at 120 min, 5 μM
measured = [
    ("Cc1cc(-c2nn(C)c3cnc(Nc4cn5ncnc5cc4C)nc23)ccn1 [Example 102]", 14),
    ("Cc1cc2ncnn2cc1Nc1ncc2c(C)nn(C3CCOCC3)c2n1 [Example 13]", 2.8),
]

Input line: Which efflux ratio at 120 min, 5 μM value belongs to Cc1cc2ncnn2cc1Nc1ncc2c(n1)c(C1CCOCC1)nn2C [Example 1] ?
Output line: 5.9

Input line: Which efflux ratio at 120 min, 5 μM value belongs to Cc1cc2nccn2cc1Nc1ncc2c(n1)c(C1=CCOCC1)nn2C [Example 6] ?
Output line: 4.9

Input line: Which efflux ratio at 120 min, 5 μM value belongs to CO[C@H]1CC[C@H](n2nc(C)c3cnc(Nc4cn5ncnc5cc4C)nc32)CC1 [Example 24] ?
Output line: 1.4

Input line: Which efflux ratio at 120 min, 5 μM value belongs to Cc1cc2nccn2cc1Nc1ncc2c(C)nn(C3CCOCC3)c2n1 [Example 14] ?
Output line: 2.3

Input line: Which efflux ratio at 120 min, 5 μM value belongs to COC(C)Cn1nc(C)c2cnc(Nc3cn4ncnc4cc3C)nc21 (racemic) [Example 69] ?
Output line: 3

Input line: Which efflux ratio at 120 min, 5 μM value belongs to Cc1cc2ncnn2cc1Nc1ncc2c(C)nn(C3CC(C)OC(C)C3)c2n1 (single isomer, unassigned) [Example 86] ?
Output line: 1.4

Input line: Which efflux ratio at 120 min, 5 μM value belongs to CO[C@H]1CC[C@@H](c2nn(C)c3cnc(Nc4cn5ncnc5cc4C)nc32)CC1 [Example 8] ?
Output line: 1.7

Input line: Which efflux ratio at 120 min, 5 μM value belongs to COc1ccc(Cn2nc(C)c3cnc(Nc4cn5ncnc5cc4C)nc32)cc1 [Example 18] ?
Output line: 1.1

Input line: Which efflux ratio at 120 min, 5 μM value belongs to Cc1cc2ncnn2cc1Nc1ncc2c(C)nn(C(C)C)c2n1 [Example 59] ?
Output line: 0.7

Reference for the values: patent US12630565B2
